tested system: HLA-A*29:02
method summary: IEDB peptide-MHC binding, purified MHC/direct/fluorescence; filed as Kd, often an IC50 or EC50 that approximates it; bounds were set here for any values at or beyond the usual limits of such assays
test settings: source organism: Yersinia pestis CA88-4125
reported endpoint: Kd (nM)

[[record]]
residues = "QQRPDLILV"
numeric_readout = 89


----------
tested system: HLA-C*06:02
method summary: IEDB peptide-MHC binding, purified MHC/direct/fluorescence; filed as Kd, often an IC50 or EC50 that approximates it; bounds were set here for any values at or beyond the usual limits of such assays
test settings: source organism: Influenza A virus (A/chicken/Fujian/25/00(H9N2))
reported endpoint: Kd

[[record]]
residues = "WMMAMRYPI"
result = "≥ 20 µM"

